# assay-text: AUC (0 to 24 hrs) in cynomolgus monkey at 10 mg/kg, po
# Assay type: ADME, organism-based, Macaca fascicularis
# Design: dose 10 mg/kg, time < 24 hr, route oral
# protocol-conditions: in vivo
assay-endpoint: AUC(0-t) at 24 h (ng·h/mL)
Write the number in ng·h/mL without appending the unit.

Ask: Which AUC(0-t) at 24 h reading was recorded for the compound "CC1(C)Cc2c(c(C(=O)Nc3ccc(C(F)(F)F)cc3)cc3nc(Nc4c(F)cccc4Cl)[nH]c23)O1" ?
Result: 16700

* * *

# assay-text: Cmax in Dunkin-Hartley guinea pig at 10 mg/kg, po
# Format: ADME, organism-based, Cavia porcellus
# Design: dose 10 mg/kg, route oral
# protocol-conditions: in vivo
assay-endpoint: Cmax (ng/mL)
Write the number in ng/mL without appending the unit.

Ask: Which Cmax reading was recorded for the compound "CC1(C)Cc2c(c(C(=O)Nc3ccc(C(F)(F)F)cc3)cc3nc(Nc4c(F)cccc4Cl)[nH]c23)O1" ?
Result: 426

* * *

# assay-text: Solubility of the compound in 0.1N HCl
# Type: physicochemical
assay-endpoint: solubility (µg/mL)
Write the number in µg/mL without appending the unit.

- smiles-repr: "CC1(C)Cc2c(c(C(=O)Nc3ccc(C(F)(F)F)cc3)cc3nc(Nc4c(Cl)cccc4Cl)[nH]c23)O1"
  u: "µg/mL"
  solubility: 0.1

Now for another entry.
Ask: Which solubility reading was recorded for the compound "CC1(C)Cc2c(c(C(=O)Nc3ccc(C(F)(F)F)cc3)cc3nc(Nc4c(F)cccc4Cl)[nH]c23)O1" ?
Result: 0.2

* * *

# assay-text: Oral bioavailability in cynomolgus monkey at 10 mg/kg
# Format: ADME, organism-based, Macaca fascicularis
# protocol-conditions: in vivo
assay-endpoint: bioavailability (%)
Write the number in % without appending the unit.

Ask: Which bioavailability reading was recorded for the compound "CC1(C)Cc2c(c(C(=O)Nc3ccc(C(F)(F)F)cc3)cc3nc(Nc4c(F)cccc4Cl)[nH]c23)O1" ?
Result: 78

* * *

# assay-text: AUC (0 to 24 hrs) in Sprague-Dawley rat at 100 mg/kg, po
# Format: ADME, organism-based
# Set-up: dose 100 mg/kg, time < 24 hr, route oral
# protocol-conditions: in vivo
assay-endpoint: AUC(0-t) at 24 h (µg·h/mL)
Write the number in µg·h/mL without appending the unit.

Ask: Which AUC(0-t) at 24 h reading was recorded for the compound "CC1(C)Cc2c(c(C(=O)Nc3ccc(C(F)(F)F)cc3)cc3nc(Nc4c(F)cccc4Cl)[nH]c23)O1" ?
Result: 108

* * *

# assay-text: Ratio of drug level in Sprague-Dawley rat brain to plasma
# Format: ADME, cell-free
# protocol-conditions: brain and plasma, read-out: BPR
assay-endpoint: Kp
Please give only the number in your answer, with no unit.

Ask: Which Kp reading was recorded for the molecule "CC1(C)Cc2c(c(C(=O)Nc3ccc(C(F)(F)F)cc3)cc3nc(Nc4c(F)cccc4Cl)[nH]c23)O1" ?
Result: 0.22

* * *

# assay-text: Solubility of the compound in FeSSIF at pH 5.2
# Assay type: physicochemical
Reported solubility by item:
Write the number in µg/mL without appending the unit.

- smiles-repr: "CC1(C)Cc2c(c(C(=O)Nc3ccc(C(F)(F)F)cc3)cc3nc(Nc4c(F)cccc4Cl)[nH]c23)O1"
  assay-endpoint: "solubility"
  experimental-value: 0.6

Now for another entry.
Ask: Which solubility reading was recorded for the compound "CC1(C)Cc2c(c(C(=O)Nc3ccc(C(F)(F)F)cc3)cc3nc(Nc4c(Cl)cccc4Cl)[nH]c23)O1" ?
Result: 0.6

* * *

# assay-text: Solubility of the compound in FaSSIF at pH 6
# Format: physicochemical
assay-endpoint: solubility (µg/mL)
Write the number in µg/mL without appending the unit.

- smiles-repr: "CC1(C)Cc2c(c(C(=O)Nc3ccc(C(F)(F)F)cc3)cc3nc(Nc4c(F)cccc4Cl)[nH]c23)O1"
  solubility [µg/mL]: 0.9

Ask: Which solubility reading was recorded for the compound "CC1(C)Cc2c(c(C(=O)Nc3ccc(C(F)(F)F)cc3)cc3nc(Nc4c(Cl)cccc4Cl)[nH]c23)O1" ?
Result: 0.3

* * *

# assay-text: Oral bioavailability in Sprague-Dawley rat at 10 mg/kg
# Format: ADME, organism-based
# protocol-conditions: in vivo
assay-endpoint: bioavailability (%)
Write the number in % without appending the unit.

Ask: Which bioavailability reading was recorded for the compound "CC1(C)Cc2c(c(C(=O)Nc3ccc(C(F)(F)F)cc3)cc3nc(Nc4c(F)cccc4Cl)[nH]c23)O1" ?
Result: 100

* * *

# assay-text: AUC (0 to 24 hrs) in Sprague-Dawley rat at 30 mg/kg, po
# Format: ADME, organism-based
# Parameters: time < 24 hr, dose 30 mg/kg, route oral
# protocol-conditions: in vivo
assay-endpoint: AUC(0-t) at 24 h
Write down the value, and be sure its unit follows.

Ask: Which AUC(0-t) at 24 h reading was recorded for the compound "CC1(C)Cc2c(c(C(=O)Nc3ccc(C(F)(F)F)cc3)cc3nc(Nc4c(F)cccc4Cl)[nH]c23)O1" ?
Result: 32400 ng·h/mL

* * *

# assay-text: Solubility of the compound in DMSO
# Format: physicochemical
Reported solubility by item:
Write the number in mg/mL without appending the unit.

- smiles-repr: "CC1(C)Cc2c(c(C(=O)Nc3ccc(C(F)(F)F)cc3)cc3nc(Nc4c(F)cccc4Cl)[nH]c23)O1"
  u: "mg/mL"
  experimental-value: 25

Now for another entry.
Ask: Which solubility reading was recorded for the molecule "CC1(C)Cc2c(c(C(=O)Nc3ccc(C(F)(F)F)cc3)cc3nc(Nc4c(Cl)cccc4Cl)[nH]c23)O1" ?
Result: 20

* * *

# assay-text: Cmax in Dunkin-Hartley guinea pig at 100 mg/kg, po
# Type: ADME, organism-based, Cavia porcellus
# Parameters: dose 100 mg/kg, route oral
# protocol-conditions: in vivo
assay-endpoint: Cmax

Ask: Which Cmax reading was recorded for the compound "CC1(C)Cc2c(c(C(=O)Nc3ccc(C(F)(F)F)cc3)cc3nc(Nc4c(F)cccc4Cl)[nH]c23)O1" ?
Result: 736 ng/mL

* * *

# assay-text: Tmax in Dunkin-Hartley guinea pig at 10 mg/kg, po
# Type: ADME, organism-based, Cavia porcellus
# protocol-conditions: in vivo
assay-endpoint: Tmax (h)
Write the number in h without appending the unit.

Ask: Which Tmax reading was recorded for the compound "CC1(C)Cc2c(c(C(=O)Nc3ccc(C(F)(F)F)cc3)cc3nc(Nc4c(F)cccc4Cl)[nH]c23)O1" ?
Result: 4

* * *

# assay-text: Cmax in cynomolgus monkey at 10 mg/kg, po
# Assay type: ADME, organism-based, Macaca fascicularis
# Design: dose 10 mg/kg, route oral
# protocol-conditions: in vivo
assay-endpoint: Cmax

Ask: Which Cmax reading was recorded for the compound "CC1(C)Cc2c(c(C(=O)Nc3ccc(C(F)(F)F)cc3)cc3nc(Nc4c(F)cccc4Cl)[nH]c23)O1" ?
Result: 908 ng/mL

* * *

# assay-text: AUC (0 to 24 hrs) in Dunkin-Hartley guinea pig at 10 mg/kg, po
# Assay type: ADME, organism-based, Cavia porcellus
# Parameters: time < 24 hr, dose 10 mg/kg, route oral
# protocol-conditions: in vivo
assay-endpoint: AUC(0-t) at 24 h (ng·h/mL)
Write the number in ng·h/mL without appending the unit.

Ask: Which AUC(0-t) at 24 h reading was recorded for the molecule "CC1(C)Cc2c(c(C(=O)Nc3ccc(C(F)(F)F)cc3)cc3nc(Nc4c(F)cccc4Cl)[nH]c23)O1" ?
Result: 5080

* * *

# assay-text: AUC (0 to 24 hrs) in Dunkin-Hartley guinea pig at 30 mg/kg, po
# Assay type: ADME, organism-based, Cavia porcellus
# Set-up: dose 30 mg/kg, time < 24 hr, route oral
# protocol-conditions: in vivo
assay-endpoint: AUC(0-t) at 24 h

Ask: Which AUC(0-t) at 24 h reading was recorded for the compound "CC1(C)Cc2c(c(C(=O)Nc3ccc(C(F)(F)F)cc3)cc3nc(Nc4c(F)cccc4Cl)[nH]c23)O1" ?
Result: 11600 ng·h/mL

* * *

# assay-text: Permeability of the compound by PAMPA
# Format: ADME
# protocol-conditions: read-out: permeability
assay-endpoint: Papp (×10⁻⁶ cm/s)
Write the number in ×10⁻⁶ cm/s without appending the unit.

Ask: Which Papp reading was recorded for the compound "CC1(C)Cc2c(c(C(=O)Nc3ccc(C(F)(F)F)cc3)cc3nc(Nc4c(F)cccc4Cl)[nH]c23)O1" ?
Result: 0.13

* * *

# assay-text: Plasma concentration in Dunkin-Hartley guinea pig model of LPS-induced thermal hyperalgesia at 10 mg/kg, po pretreated for 4 hrs followed by LPS challenge measured at […] post dose
# Assay type: ADME, organism-based, Cavia porcellus
assay-endpoint: concentration at […] (ng/mL)
Write the number in ng/mL without appending the unit.

Ask: Which concentration at […] reading was recorded for the compound "CC1(C)Cc2c(c(C(=O)Nc3ccc(C(F)(F)F)cc3)cc3nc(Nc4c(F)cccc4Cl)[nH]c23)O1" ?
Result: 116
